# study.system: Bifunctional dihydrofolate reductase-thymidylate synthase (Plasmodium falciparum K1, UniProt P13922, C59R/I164L/N51I/S108N)
# Sequence (P13922 whole entry, looked up, stated change not applied): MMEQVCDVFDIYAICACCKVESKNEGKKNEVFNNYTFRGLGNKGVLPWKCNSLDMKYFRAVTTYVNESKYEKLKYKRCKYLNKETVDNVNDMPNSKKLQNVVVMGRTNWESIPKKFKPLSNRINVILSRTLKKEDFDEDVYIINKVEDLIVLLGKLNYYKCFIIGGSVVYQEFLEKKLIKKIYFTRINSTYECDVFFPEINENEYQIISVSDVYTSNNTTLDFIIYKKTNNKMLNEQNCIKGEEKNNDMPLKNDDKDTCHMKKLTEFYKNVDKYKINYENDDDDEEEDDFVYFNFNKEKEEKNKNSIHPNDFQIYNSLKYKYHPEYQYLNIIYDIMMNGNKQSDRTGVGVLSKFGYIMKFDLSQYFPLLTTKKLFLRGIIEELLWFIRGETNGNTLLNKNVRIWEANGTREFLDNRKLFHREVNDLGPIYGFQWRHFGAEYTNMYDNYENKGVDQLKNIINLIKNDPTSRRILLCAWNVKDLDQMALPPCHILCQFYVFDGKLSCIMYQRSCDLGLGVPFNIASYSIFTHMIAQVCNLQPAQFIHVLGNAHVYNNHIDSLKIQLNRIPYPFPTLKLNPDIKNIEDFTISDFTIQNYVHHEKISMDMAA
# test.name: Inhibitory activity against quadruple mutant dihydrofolate reductase (N51I C59R S108N I164L DHFR)
result.type: Ki
Don't forget the unit after the value.

• Nc1ncc(Cc2ccc(OCCCOc3ccccc3)cc2)c(N)n1 = 2260 nM
• CCc1nc(N)nc(N)c1Cc1ccc(OCc2ccccc2)c(OC)c1 = 732 nM
• COc1cc(Cc2cnc(N)nc2N)ccc1OCCCOc1ccccc1 = 606 nM
• COc1cc(Cc2cnc(N)nc2N)ccc1OCCCOCCCOc1ccccc1 = 2190 nM
• COc1cc(Cc2cnc(N)nc2N)ccc1OCCCc1ccccc1 = 1120 nM

(Q) What does the data say about its Ki? Entry: CCCCCCCOc1ccc(Cc2cnc(N)nc2N)cc1
(A) 1380 nM

(Q) Repeat for the following compound: CCCCOc1cc(Cc2cnc(N)nc2N)ccc1OC
(A) 1030 nM

(Q) Repeat for the following compound: COc1cc(Cc2c(C)nc(N)nc2N)ccc1OCc1ccccc1
(A) 93.4 nM

(Q) Repeat for the following compound: CCOc1cc(Cc2cnc(N)nc2N)ccc1OCCCOc1ccccc1
(A) 770 nM

(Q) Repeat for the following compound: CCCOc1cc(Cc2cnc(N)nc2N)ccc1OC
(A) 920 nM

(Q) Repeat for the following compound: CCOc1cc(Cc2cnc(N)nc2N)ccc1OCCCOCCCOc1ccccc1
(A) 937 nM

(Q) Repeat for the following compound: CCCCCOc1cc(Cc2cnc(N)nc2N)ccc1OC
(A) 444 nM

(Q) Repeat for the following compound: COc1ccc(Cc2cnc(N)nc2N)cc1OC
(A) 13900 nM

* * *

# study.system: Bifunctional dihydrofolate reductase-thymidylate synthase (Plasmodium falciparum K1)
# test.name: Inhibitory activity against wild-type dihydrofolate reductase (S108N DHFR), relative to trimethoprim
Cut-off 0.3 on Relative activity: below means T, at or above means F.

Example results:
* COc1ccc(Cc2cnc(N)nc2N)cc1OCc1ccccc1 | F
* CCCCCOc1cc(Cc2cnc(N)nc2N)ccc1OC | T

(Q) Confirm or reject: Relative activity of CCOc1cc(Cc2cnc(N)nc2N)ccc1OCCCOCCCOc1ccccc1 lies strictly below 0.3
(A) T

(Q) Repeat for the following molecule: COc1ccc(Cc2cnc(N)nc2N)cc1OC [DIAVERIDINE]
(A) F

(Q) Repeat for the following molecule: CCCOc1cc(Cc2cnc(N)nc2N)ccc1OC
(A) T

(Q) Repeat for the following molecule: Nc1ncc(Cc2ccc(OCCCOc3ccccc3)cc2)c(N)n1
(A) F

* * *

# study.system: Bifunctional dihydrofolate reductase-thymidylate synthase (Plasmodium falciparum K1)
# test.name: Inhibitory activity against double mutant dihydrofolate reductase (C59R+S108N DHFR)
pKi: −log10 of the molar value.
Label rule, in plain words: pKi of 7 and up is Satisfied, under 7 is Not satisfied.

Example results:
* CCc1nc(N)nc(N)c1Cc1ccc(OCc2ccccc2)c(OC)c1 | Satisfied
* Nc1ncc(Cc2ccc(OCCCc3ccccc3)cc2)c(N)n1 | Satisfied
* CCCOc1cc(Cc2cnc(N)nc2N)ccc1OC | Satisfied

(Q) Please check the record CCOc1cc(Cc2cnc(N)nc2N)ccc1OCCCOc1ccccc1 and state if its pKi is at or above 7.
(A) Satisfied

(Q) Repeat for the following molecule: CCCCCCCOc1ccc(Cc2cnc(N)nc2N)cc1
(A) Not satisfied

(Q) Repeat for the following molecule: CCCOc1cc(Cc2c(N)nc(N)nc2CC)ccc1OCc1cc(OC)c(OC)c(OC)c1
(A) Satisfied

* * *

# study.system: Bifunctional dihydrofolate reductase-thymidylate synthase (Plasmodium falciparum K1) (UniProt P13922)
# Sequence (P13922 whole entry, looked up): as the sequence (P13922 whole entry, looked up, stated change not applied) above
# test.name: Inhibitory activity against quadruple mutant dihydrofolate reductase (N51I C59R S108N I164L DHFR), relative to trimethoprim
result.type: Relative activity
Just the number, please, no unit after it.

(Q) What does the data say about its Relative activity? Entry: COc1cc(Cc2cnc(N)nc2N)ccc1OCCCOCCCOc1ccccc1
(A) 0.33

(Q) Repeat for the following compound: CCOc1cc(Cc2cnc(N)nc2N)ccc1OCCCOc1ccccc1
(A) 0.12

(Q) Repeat for the following compound: CCCCCCCOc1cc(Cc2cnc(N)nc2N)ccc1OC
(A) 0.1

(Q) Repeat for the following compound: COc1ccc(Cc2cnc(N)nc2N)cc1OCc1ccccc1
(A) 0.2

(Q) Repeat for the following compound: COc1ccc(Cc2cnc(N)nc2N)cc1
(A) 3.1

(Q) Repeat for the following compound: CCCOc1cc(Cc2cnc(N)nc2N)ccc1OC
(A) 0.1

(Q) Repeat for the following compound: Nc1ncc(Cc2ccc(OCCCOc3ccccc3)cc2)c(N)n1
(A) 0.34

* * *

# study.system: Bifunctional dihydrofolate reductase-thymidylate synthase (Plasmodium falciparum K1)
# test.name: Inhibitory activity against double mutant dihydrofolate reductase (C59R S108N DHFR), relative to trimethoprim
result.type: Relative activity
Just the number, please, no unit after it.

• CCCCOc1cc(Cc2cnc(N)nc2N)ccc1OC = 0.8
• CCCCCOc1cc(Cc2cnc(N)nc2N)ccc1OC = 0.5
• CCc1nc(N)nc(N)c1Cc1ccc(OCc2ccccc2)c(OC)c1 = 0.25
• CCOc1cc(Cc2cnc(N)nc2N)ccc1OCCCOCCCOc1ccccc1 = 0.19
• COc1cc(Cc2cnc(N)nc2N)ccc1OCCCOc1ccccc1 = 0.15
• CCCOc1cc(Cc2cnc(N)nc2N)ccc1OC = 0.2
• CCCOc1ccc(Cc2cnc(N)nc2N)cc1 = 0.9
• COc1cc(Cc2cnc(N)nc2N)ccc1OCCCc1ccccc1 = 0.33

(Q) What does the data say about its Relative activity? Entry: COc1cc(Cc2cnc(N)nc2N)ccc1OCCCOCCCOc1ccccc1
(A) 0.63

(Q) Repeat for the following compound: CCCCCOc1ccc(Cc2cnc(N)nc2N)cc1OCC
(A) 0.2

(Q) Repeat for the following compound: CCOc1cc(Cc2cnc(N)nc2N)ccc1OCCCc1ccccc1
(A) 0.08

(Q) Repeat for the following compound: Nc1ncc(Cc2ccc(OCCCc3ccccc3)cc2)c(N)n1
(A) 0.44

* * *

# study.system: Bifunctional dihydrofolate reductase-thymidylate synthase (Plasmodium falciparum K1)
# test.name: Inhibitory activity against double mutant dihydrofolate reductase (C59R+S108N DHFR)
Below: a set of entries, each annotated with reported Ki.
The reply should be a number in nM, with the unit left off.

Past entries and their recorded results:
• COc1cc(Cc2cnc(N)nc2N)ccc1OCCCOc1ccccc1 = 37.1
• COc1cc(Cc2c(C)nc(N)nc2N)ccc1OCc1ccccc1 = 89.5
• Nc1ncc(Cc2ccc(OCCCOc3ccccc3)cc2)c(N)n1 = 170
• CCOc1cc(Cc2cnc(N)nc2N)ccc1OCCCOCCCOc1ccccc1 = 46.9
• COc1ccc(Cc2cnc(N)nc2N)cc1 = 464

# input for lookup
(Q) What does the data say about its Ki? Entry: CCCCOc1cc(Cc2cnc(N)nc2N)ccc1OC
(A) 194

* * *

# study.system: Bifunctional dihydrofolate reductase-thymidylate synthase (Plasmodium falciparum K1)
# test.name: Inhibitory activity against triple mutant dihydrofolate reductase (C59R S108N I164L DHFR), relative to trimethoprim
Cut-off 0.05 on Relative activity: below means yes (1), at or above means no (0).

Example results:
* CCCCCOc1ccc(Cc2cnc(N)nc2N)cc1 | no (0)
* CCCCOc1cc(Cc2cnc(N)nc2N)ccc1OC | no (0)
* COc1ccc(Cc2cnc(N)nc2N)cc1OC [DIAVERIDINE] | no (0)
* COc1cc(Cc2cnc(N)nc2N)ccc1OCCCOCCCOc1ccccc1 | no (0)
* CCCCCOc1ccc(Cc2cnc(N)nc2N)cc1OCC | no (0)
* COc1cc(Cc2cnc(N)nc2N)ccc1OCCCc1ccccc1 | no (0)

(Q) Confirm or reject: Relative activity of COc1ccc(Cc2cnc(N)nc2N)cc1OCc1ccccc1 lies strictly below 0.05
(A) no (0)

(Q) Repeat for the following compound: CCc1nc(N)nc(N)c1Cc1ccc(OCc2ccccc2)c(OC)c1
(A) no (0)

(Q) Repeat for the following compound: CCCCCOc1cc(Cc2cnc(N)nc2N)ccc1OC
(A) yes (1)

(Q) Repeat for the following compound: CCOc1cc(Cc2cnc(N)nc2N)ccc1OCCCc1ccccc1
(A) no (0)

(Q) Repeat for the following compound: COc1cc(Cc2c(C)nc(N)nc2N)ccc1OCc1ccccc1
(A) yes (1)

(Q) Repeat for the following compound: CCCCCCCOc1ccc(Cc2cnc(N)nc2N)cc1
(A) no (0)

(Q) Repeat for the following compound: CCCOc1cc(Cc2c(N)nc(N)nc2CC)ccc1OCc1cc(OC)c(OC)c(OC)c1
(A) yes (1)

(Q) Repeat for the following compound: CCCOc1ccc(Cc2cnc(N)nc2N)cc1
(A) no (0)

(Q) Repeat for the following compound: COc1ccc(Cc2cnc(N)nc2N)cc1
(A) no (0)

* * *

Below: a set of entries, each annotated with reported Relative activity.
# study.system: Bifunctional dihydrofolate reductase-thymidylate synthase (Plasmodium falciparum K1)
# test.name: Inhibitory activity against triple mutant dihydrofolate reductase (C59R S108N I164L DHFR), relative to trimethoprim
Just the number, please, no unit after it.

(Q) What does the data say about its Relative activity? Entry: Nc1ncc(Cc2ccc(OCCCc3ccccc3)cc2)c(N)n1
(A) 0.54
